- System: ACHN renal
- ASSAY_TEXT: NCI tumour cell line growth inhibition, 48 h
MEASUREMENT_TYPE: TGI

Below, each entry is followed by its recorded TGI result.
O=C(/C=c1\oc(=O)/c(=C/C(=O)c2ccc(Cl)cc2)oc1=O)c1ccc(Cl)cc1 | > 100 µM
COc1cc[c]([Sb]([Br])([CH]=C(C)C)([CH]=C(C)C)[CH]=C(C)C)cc1 | > 100 µM
O=C(CCc1ccco1)NC1CCN(CC2(c3ccc(Cl)cc3)CCC2)CC1 | 22.7 µM
CC1=CSC(O)(c2ccc(Cl)cc2)c2noc(=O)n21 (centres undefined) | > 100 µM
C[C@@H]1[C@H]2[C@H](C=C3[C@@H]4CC[C@H]5Cc6nc7c(nc6C[C@]5(C)[C@H]4C[C@@H](O)[C@@]32C)C[C@@H]2CC[C@H]3C4=C[C@@H]5O[C@@]6(CC[C@](C)(CO)O6)[C@@H](C)[C@@]5(O)[C@@]4(C)[C@H](O)C[C@@H]3[C@@]2(C)C7)O[C@]12CCC(C)(C)O2 | > 100 µM
CC(C)(C)OC(=O)NNC(=O)C1Cc2ccccc2OC1=O (centres undefined) | > 100 µM
O=[N+]([O-])c1cc2c(cc1O)[nH]c1cccc([N+](=O)[O-])c12 | > 100 µM
CC(=O)/C=C(/C=N/O)c1ccccc1 | > 100 µM

TGI measured on CC(O)CCNC(=O)Nc1c(C(F)(F)F)cc(-c2ccccc2)[nH]c1=O (centres undefined) = > 100 µM

TGI measured on `Nc1ccc2ncc(Nc3ccc(F)cc3)nc2c1` = > 100 µM

TGI measured on `Cc1cc(C)c(S(=O)(=O)N(CCCCCCN)OCCCN)c(C)c1` = 30.9 µM

TGI measured on `COc1ccc2c(O)c(/C=C3\N=Nc4ncccc43)oc2c1C[C@H]1CCNC[C@H]1F` = 8.18 µM

---

- Tested on: DLD-1 colon
- ASSAY_TEXT: NCI tumour cell line growth inhibition, 48 h
MEASUREMENT_TYPE: TGI

O=C(CSc1nnc(Cc2ccccc2)o1)Nc1ccccc1Cl | > 100 µM

TGI measured on `Nc1ccc2ncc(Nc3ccc(F)cc3)nc2c1` = > 100 µM

TGI measured on `O=C1NC2(CCCC2)/C(=N\O)C12CCCC2` = > 100 µM

---

Examples of compounds with documented TGI follow.
- System: SF-268 CNS
- ASSAY_TEXT: NCI tumour cell line growth inhibition, 48 h

O=S(Nc1ccccc1)c1ccc(-c2ccccc2)cc1 (stereo unspecified) | > 100 µM
C[C@@H]1[C@H]2[C@H](C=C3[C@@H]4CC[C@H]5Cc6nc7c(nc6C[C@]5(C)[C@H]4C[C@@H](O)[C@@]32C)C[C@@H]2CC[C@H]3C4=C[C@@H]5O[C@@]6(CC[C@](C)(CO)O6)[C@@H](C)[C@@]5(O)[C@@]4(C)[C@H](O)C[C@@H]3[C@@]2(C)C7)O[C@]12CCC(C)(C)O2 | 31.6 µM

TGI measured on `N#Cc1c(N)c2c(c(-c3ccccc3)c1-c1ccccc1)C(=O)N(Nc1ccccc1)C2=O` = > 100 µM

TGI measured on `CNS(=O)(=O)c1ccccc1C(=N)c1ccccc1` = > 100 µM

TGI measured on `O=C1CCc2nc3ncccc3cc2C1` = > 100 µM

TGI measured on `O=Nc1ccc(O)c2ncccc12` = 17.2 µM

TGI measured on C=C1C(=O)CCC1C(=O)O (stereo unspecified) = > 100 µM

TGI measured on `CSC1=Nc2c(c(C)c(-c3ccccc3)n2CCCCl)C2=NC(=O)CN12` = 47.6 µM

TGI measured on `CCc1cccc(CC)c1Nc1nc2c(s1)C(=O)c1ccccc1C2=O` = 41.7 µM

TGI measured on `C/C(=C1/N=C(c2ccccc2)OC1=O)c1ccc(C)cc1` = > 100 µM

TGI measured on OC(COc1cccc2ccccc12)CN1CCN(c2ccc(Cl)cc2)CC1 (stereo unspecified) = 45.5 µM

TGI measured on `O=c1c2[nH]c3ccccc3c2nc2n1CCS2` = > 100 µM

TGI measured on `COc1cc[c]([Sb]([Br])([CH]=C(C)C)([CH]=C(C)C)[CH]=C(C)C)cc1` = 35.8 µM

TGI measured on `Cc1ccc(C(=O)OC(C)C)cc1N=NN(C)C` = > 100 µM

TGI measured on `COc1cc(-c2nc3ccccc3[nH]2)ccc1OCC(=O)N=Nc1c(O)[nH]c2ccc(Cl)cc12` = 3.34 µM

TGI measured on `COc1cc(OC)cc(-c2ccc(-c3ccc(C(=N)N)s3)s2)c1` = 3.42 µM

TGI measured on COc1cc(C(C#N)NNC(=O)Cc2ccccc2)cc(OC)c1OC (stereo unspecified) = > 100 µM

TGI measured on CSC1=C(C#N)C(=O)N(c2ccc(Cl)cc2)C(=O)C1C#N (stereo unspecified) = > 100 µM

TGI measured on Brc1cccc(Nc2ncnc3sc4c(c23)CCC(Nc2cccc(Br)c2)C4)c1 (stereo unspecified) = > 100 µM

TGI measured on `C/C(=N/NC(=S)N(C)CCc1ccccn1)c1cnccn1` = 14.9 µM

TGI measured on `COc1cc(OC)cc(-n2c(N)c(-c3nc4ccccc4s3)c3ccc([N+](=O)[O-])cc3c2=O)c1` = > 100 µM

---

- System: MOLT-4 leukemia
- ASSAY_TEXT: NCI tumour cell line growth inhibition, 48 h
Where a SMILES comes first, the peptide text is derived from it. The star is where a group is joined. Boc = CC(C)(C)OC(=O)*
Examples of molecules with documented TGI follow.
Give just the numeric value; µM need not be written.

TGI measured on C=C(C)C(=O)OC1C(C(C)CCCO)=C(CO)CC2OC(=O)C(=C)C21 (stereo not given) = 88.9

TGI measured on `COc1cccc2c1nc1cccc(OC)c1[n+]2[O-]` = 2.62

TGI measured on CC(C)(Cl)C(Br)CCC(CBr)=C(Cl)CCl (mixture of isomers) = 1.96

TGI measured on `CN(C)Cc1cc(C(=O)/C=C/c2ccc(Br)cc2)cc(CN(C)C)c1O` = 19.6

TGI measured on `O=S(=O)(CC#CCCCOCC#Cc1ccccc1C#CCS(=O)(=O)c1ccccc1)c1ccccc1` = 5.9

TGI measured on CSc1c(S(C)=O)[nH]c2cc(Br)cc(Br)c12 (stereo not given) = 61.5

TGI measured on CC(C)=CCc1c(O)ccc2c1OC1c3ccc(O)c(CC=C(C)C)c3OCC21 (stereo not given) = 16

TGI measured on `C[C@@H]1[C@H]2[C@H](C=C3[C@@H]4CC[C@H]5Cc6nc7c(nc6C[C@]5(C)[C@H]4C[C@@H](O)[C@@]32C)C[C@@H]2CC[C@H]3C4=C[C@@H]5O[C@@]6(CC[C@](C)(CO)O6)[C@@H](C)[C@@]5(O)[C@@]4(C)[C@H](O)C[C@@H]3[C@@]2(C)C7)O[C@]12CCC(C)(C)O2` = 0.857

TGI measured on COC(=O)C(Cc1c[nH]c2ccccc12)NC(=O)C(Cc1c[nH]c2ccccc12)NC(=O)C(Cc1c[nH]c2ccccc12)NC(=O)OC(C)(C)C (stereo not drawn) (Boc-Trp-Trp-Trp-OMe; configuration not given here) = 39.9

---

- Tested on: 786-0 renal
- ASSAY_TEXT: NCI tumour cell line growth inhibition, 48 h; in the data active = GI50 below about 0.43 µM; inactive = the rest
Answer with one of the outcomes Y = active, N = inactive

Some solved entries appear below for comparison.
COc1cc(-c2nc(-c3nnc(-c4ccc(F)c(Cl)c4)o3)c3ccccn23)cc(OC)c1OC | N
Cc1cc(S(N)(=O)=O)c(S/C(=N\Nc2ccc([N+](=O)[O-])cc2)c2ccc(O)cc2)cc1Cl | N
COc1cccc2c1nc1cccc(OC)c1[n+]2[O-] | N
COc1ccc2c(O)c(/C=C3\N=Nc4ncccc43)oc2c1C[C@H]1CCNC[C@H]1F | Y
CC(N)(Cc1c[nH]c2ccccc12)C(=O)O (stereo unspecified) | N

Okay, now this molecule:
# input Per the assay record, what outcome was assigned to `COc1cc[c]([Sb]([Br])([CH]=C(C)C)([CH]=C(C)C)[CH]=C(C)C)cc1` ?
# output N

---

Examples of compounds with documented log10(TGI) follow.
- Tested on: NCI-H226 lung
- ASSAY_TEXT: NCI tumour cell line growth inhibition, 48 h
For clarity, the numbers are log10 values of TGI expressed in µM.

log10(TGI) measured on `C[C@@H]1[C@H]2[C@H](C=C3[C@@H]4CC[C@H]5Cc6nc7c(nc6C[C@]5(C)[C@H]4C[C@@H](O)[C@@]32C)C[C@@H]2CC[C@H]3C4=C[C@@H]5O[C@@]6(CC[C@](C)(CO)O6)[C@@H](C)[C@@]5(O)[C@@]4(C)[C@H](O)C[C@@H]3[C@@]2(C)C7)O[C@]12CCC(C)(C)O2` = 1.55

log10(TGI) measured on CC(C)C(C/C=C1/CC(CO)(COC(=O)C(C)(C)C)OC1=O)C(C)C (configuration not stated) = 1.36

log10(TGI) measured on C=CC[N+]1(CCO)CCN=C1CCCCCCCCCCCCC (configuration not stated) = 0.54

log10(TGI) measured on CCCCCCCCCCCCOC1C(CNCC2OC3OC(C)(C)OC3C2NC(=O)Nc2ccc(C(F)(F)F)cc2)OC2OC(C)(C)OC21 (configuration not stated) = 1.21

log10(TGI) measured on `COc1ccccc1-c1ccc2nc(NC(=O)Nc3cc(C(F)(F)F)cc(C(F)(F)F)c3)sc2c1` = 0.75

log10(TGI) measured on `COc1cc(CNc2nc3ccccc3n2Cc2ccccc2)cc(CN2CCOCC2)c1O` = 1.92

log10(TGI) measured on COC1/C=C\OC2(C)Oc3c(C)c(O)c4c(O)c(c(/C=N\OCCCc5ccccc5)c(O)c4c3C2=O)NC(=O)/C(C)=C\C=C/C(C)C(O)C(C)C(O)C(C)C(OC(C)=O)C1C (configuration not stated) = 0.85
